These measurements were taken from paper PMC8907715.

Biological target: Kunitz trypsin inhibitor (KTI)
Sequence: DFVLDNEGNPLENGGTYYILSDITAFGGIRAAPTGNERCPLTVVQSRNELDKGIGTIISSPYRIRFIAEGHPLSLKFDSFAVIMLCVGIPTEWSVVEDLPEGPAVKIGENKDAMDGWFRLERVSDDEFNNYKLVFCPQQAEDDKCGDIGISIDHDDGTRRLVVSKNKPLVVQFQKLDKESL
Assay: GO fluorescence assay
Conditions: FAM-aptamer 0-600 nM with GO 60 min, then 1 uM KTI 2 h at room temperature in the dark; assay buffer, salt and pH not stated (oligos dissolved in TE pH 8.0)
Endpoint label: pKd
Answer as the number alone; pKd is minus log10 of concentration in mol/L.

• CTGGTGTTTTCTTTACGCATAACAAGGCCCCTGAGAGGCT [Akti-9] = 6.87
• CCAACCTGTGGCATTTGGTAACTTGATCTTACGGTGTTCG [Akti-10] = 7.65
• TGTACCGCCCACCTGCCGCTAACGGCGGTGCTGCGGTGCG [Akti-28] = 6.78
• GGTCGTGAGGCCCACCGCTGAGCTCTAGTATCGCTCGGCG [Akti-11] = 6.93

Okay, now this sequence:
Prompt line: I have this sequence here, TCTGGCTTCTGATCTGATGTTTTTACTATCGGTATTTCTA [Akti-15] , and I need its recorded pKd.
Response line: 7.17
